The compounds listed here are annotated with their LDH (% of ctl).
test system: primary cortico-hippocampal neuron cultures; experiment: lactate dehydrogenase (LDH) activity assay in parallel neuron cultures; conditions: primary screening; table sorted by Aβ1-42
parameter: LDH (% of ctl)

>  <compound>
CC(C)N(CCC(C(N)=O)(c1ccccc1)c1ccccn1)C(C)C (centres unmarked) [Disopyramide Phosphate]

>  <parameter>
LDH (% of ctl)

>  <result value>
125.8 % of ctl

$$$$
>  <compound>
O=C1c2ccccc2C(=O)C1c1ccccc1 [Phenindione]

>  <parameter>
LDH (% of ctl)

>  <result value>
107.9 % of ctl

$$$$
>  <compound>
C[C@@H]1CCC[C@H](C)N1NC(=O)c1ccc(Cl)c(S(N)(=O)=O)c1 [Clopamide]

>  <parameter>
LDH (% of ctl)

>  <result value>
99.9 % of ctl

$$$$
>  <compound>
OCCN(CCO)c1nc(N2CCCCC2)c2nc(N(CCO)CCO)nc(N3CCCCC3)c2n1 [Dipyridamole]

>  <parameter>
LDH (% of ctl)

>  <result value>
107.5 % of ctl

$$$$
>  <compound>
NC(N)=NC(=O)c1nc(Cl)c(N2CCCCCC2)nc1N [N,N-Hexamethyleneamiloride]

>  <parameter>
LDH (% of ctl)

>  <result value>
117.3 % of ctl

$$$$

###

tested on: Aβ1-40; experiment: Aβ1-40 content in conditioned medium of primary cortico-hippocampal neuron cultures from Tg2576 mice (ELISA; primary and secondary dose-response screening); assay type: cell-based, mouse; conditions: Mus musculus, Neuron, 24 h, primary screening, drug 100 μM, Tg2576 neuron cultures; table sorted by Aβ1-42; read-out: Ab1-40 (% of ctl)
Structures can show the parent of a compound that is named as a salt.
Measured activity at 100 µM accompanies every entry in the list below.

>  <compound>
CC(N)CCCC(C)(C)O (centres unmarked) [Heptaminol Hydrochloride]

>  <activity at 100 µM / %>
112

$$$$
>  <compound>
CCCc1nc2c(C)cc(-c3nc4ccccc4n3C)cc2n1Cc1ccc(-c2ccccc2C(=O)O)cc1

>  <activity at 100 µM / %>
91.1

$$$$
>  <compound>
Cc1cccc(C)c1OCC(C)N (centres unmarked) [Mexiletine Hydrochloride]

>  <activity at 100 µM / %>
91.3

$$$$
>  <compound>
CCCc1nc(C(C)(C)O)c(C(=O)OCc2oc(=O)oc2C)n1Cc1ccc(-c2ccccc2-c2nnn[nH]2)cc1

>  <activity at 100 µM / %>
83.9

$$$$
>  <compound>
CCOC(=O)[C@H](CCc1ccccc1)N[C@@H](C)C(=O)N1[C@H](C(=O)O)C[C@H]2CCCC[C@@H]21

>  <activity at 100 µM / %>
137

$$$$
>  <compound>
CCCCCCCCNC(C)C(O)c1ccc(SC(C)C)cc1 (centres unmarked)

>  <activity at 100 µM / %>
1.8

$$$$
>  <compound>
CC(NCCC(c1ccccc1)c1ccccc1)c1ccccc1 (centres unmarked) [Fendiline Hydrochloride]

>  <activity at 100 µM / %>
7.9

$$$$
>  <compound>
CCC(C)(C)C(=O)O[C@H]1C[C@@H](C)C=C2C=C[C@H](C)[C@H](CC[C@@H]3C[C@@H](O)CC(=O)O3)[C@H]21

>  <activity at 100 µM / %>
28

$$$$

Data credit: patent US20100029654A1
